- Measurement Protocol: UV/Vis absorption of photoisomers
- Assay type: physicochemical
- Setup Conditions: trans isomer
Reported Property: λmax π-π* (trans) (nm)

INSERT INTO results (smiles_text, endpoint_unit, value_measured) VALUES
  ('O=[N+]([O-])N=C1N(Cc2ccc(N=Nc3ccc(CN4CCN(Cc5ccc(Cl)nc5)C4=N[N+](=O)[O-])cc3)cc2)CCN1Cc1ccc(Cl)nc1', 'nm', 325),
  ('O=[N+]([O-])/N=C1/N(Cc2ccc(/N=N/c3ccccc3)cc2)CCN1Cc1ccc(Cl)nc1', 'nm', 322),
  ('O=[N+]([O-])/N=C1\N(Cc2ccc(Cl)nc2)CCN1Cc1cccc(/N=N/c2cccc(CN3CCN(Cc4ccc(Cl)nc4)/C3=N\[N+](=O)[O-])c2)c1', 'nm', 319),
  ('O=[N+]([O-])/N=C1\N(Cc2ccc(Cl)nc2)CCN1Cc1cccc(/N=N/c2ccccc2)c1', 'nm', 317);
